Entry source: patent US20260256962A1

test: In vivo conversion of [^18F] granzyme B prodrugs to active form, radioactive metabolite screening of blood by radio-HPLC; design: species or system male CD-1 mice; details: male CD-1 mice, tail vein injection, blood 5 minutes post-injection, radio-HPLC
Recorded 5 min (% active form in blood) for the following compounds

compound: CC[C@H](C)[C@H](NC(=O)CCNC(=O)CCNC(=O)[C@@H](CCC(=O)O)NC(=O)CN1CCC(CN2CCN3CCN(CC2)CC(=O)[O][Al]([F])[O]C(=O)C3)CC1)C(=O)N[C@H]1CCc2cccc3c2N(C1=O)[C@H](C(=O)N[C@H]1CC(=O)O[C@@H]1OC)C3 [[^18F] 3-Al]
recorded value: 13%

The compound CC[C@H](C)[C@H](NC(=O)CCNC(=O)CCNC(=O)[C@@H](CCC(=O)O)NC(=O)CN1CCC(CN2CCN3CCN(CC2)CC(=O)[O][Al]([F])[O]C(=O)C3)CC1)C(=O)N[C@H]1CCc2cccc3c2N(C1=O)[C@H](C(=O)N[C@H]1CC(=O)O[C@H]1OC)C3 [[^18F] 4-Al] showed 5 min (% active form in blood) equal to 92%

---

Recorded 5 min (% active form in blood) for the following molecules
test: In vivo conversion of [^18F] granzyme B prodrugs to active form, radioactive metabolite screening of blood by radio-HPLC; design: species or system male CD-1 mice; details: male CD-1 mice, tail vein injection, blood 5 minutes post-injection, radio-HPLC
# unit: % | format: bare number

molecule: CC[C@H](C)[C@H](NC(=O)COCCNC(=O)[C@@H](CCC(=O)O)NC(=O)[C@@H](CCC(=O)O)NC(=O)CN1CCC(CN2CCN3CCN(CC2)CC(=O)[O][Al]([F])[O]C(=O)C3)CC1)C(=O)N[C@H]1CCc2cccc3c2N(C1=O)[C@H](C(=O)N[C@H]1CC(=O)O[C@@H]1OC)C3 [[^18F] 6-Al]
endpoint unit: %
5 min (% active form in blood): 11

Next, consider the following molecule.
The molecule CC[C@H](C)[C@H](NC(=O)CCNC(=O)CCNC(=O)CN(CC(=O)O)C(=O)CN1CCC(CN2CCN3CCN(CC2)CC(=O)[O][Al]([F])[O]C(=O)C3)CC1)C(=O)N[C@H]1CCc2cccc3c2N(C1=O)[C@H](C(=O)N[C@H]1CC(=O)O[C@H]1OC)C3 [[^18F] 9-Al] showed 5 min (% active form in blood) equal to 90

---

assay: In vivo conversion of [^18F] granzyme B prodrugs to active form, radioactive metabolite screening of blood by radio-HPLC; set-up: species or system male CD-1 mice; conditions: male CD-1 mice, tail vein injection, blood 5 minutes post-injection, radio-HPLC
Recorded 5 min (% active form in blood) for the following compounds
# unit: % | format: bare number

compound: CCO[C@@H]1OC(=O)C[C@@H]1NC(=O)[C@@H]1Cc2cccc3c2N1C(=O)[C@@H](NC(=O)[C@@H](NC(=O)COCCNC(=O)[C@@H](CCC(=O)O)NC(=O)[C@@H](CCC(=O)O)NC(=O)CN1CCC(CN2CCN4CCN(CC2)CC(=O)[O][Al]([F])[O]C(=O)C4)CC1)[C@@H](C)CC)CC3 [[^18F] 8-Al]
attribute measured: 5 min (% active form in blood)
recorded value: 86
--
compound: CCO[C@@H]1OC(=O)C[C@@H]1NC(=O)[C@@H]1Cc2cccc3c2N1C(=O)[C@@H](NC(=O)[C@@H](NC(=O)CCNC(=O)CCNC(=O)[C@@H](CCC(=O)O)NC(=O)CN1CCC(CN2CCN4CCN(CC2)CC(=O)[O][Al]([F])[O]C(=O)C4)CC1)[C@@H](C)CC)CC3 [[^18F] 5-Al]
attribute measured: 5 min (% active form in blood)
recorded value: 98

Next, consider the following compound.
The compound CC[C@H](C)[C@H](NC(=O)COCCNC(=O)[C@@H](CCC(=O)O)NC(=O)[C@@H](CCC(=O)O)NC(=O)CN1CCC(CN2CCN3CCN(CC2)CC(=O)[O][Al]([F])[O]C(=O)C3)CC1)C(=O)N[C@H]1CCc2cccc3c2N(C1=O)[C@H](C(=O)N[C@H]1CC(=O)O[C@H]1OC)C3 [[^18F] 7-Al] showed 5 min (% active form in blood) equal to 69

---

assay: In vivo conversion of [^18F] granzyme B prodrugs to active form, radioactive metabolite screening of blood by radio-HPLC; set-up: species or system male CD-1 mice; details: male CD-1 mice, tail vein injection, blood 15 minutes post-injection, radio-HPLC
attribute measured: 15 min (% active form in blood) (%)
# unit: % | format: bare number

The examples below pair each entry with its known result.
compound: CC[C@H](C)[C@H](NC(=O)COCCNC(=O)[C@@H](CCC(=O)O)NC(=O)[C@@H](CCC(=O)O)NC(=O)CN1CCC(CN2CCN3CCN(CC2)CC(=O)[O][Al]([F])[O]C(=O)C3)CC1)C(=O)N[C@H]1CCc2cccc3c2N(C1=O)[C@H](C(=O)N[C@H]1CC(=O)O[C@H]1OC)C3 [[^18F] 7-Al]
attribute measured: 15 min (% active form in blood)
endpoint unit: %
recorded value: 78

compound: CC[C@H](C)[C@H](NC(=O)COCCNC(=O)[C@@H](CCC(=O)O)NC(=O)[C@@H](CCC(=O)O)NC(=O)CN1CCC(CN2CCN3CCN(CC2)CC(=O)[O][Al]([F])[O]C(=O)C3)CC1)C(=O)N[C@H]1CCc2cccc3c2N(C1=O)[C@H](C(=O)N[C@H]1CC(=O)O[C@@H]1OC)C3 [[^18F] 6-Al]
attribute measured: 15 min (% active form in blood)
endpoint unit: %
recorded value: 16

compound: CCO[C@@H]1OC(=O)C[C@@H]1NC(=O)[C@@H]1Cc2cccc3c2N1C(=O)[C@@H](NC(=O)[C@@H](NC(=O)CCNC(=O)CCNC(=O)[C@@H](CCC(=O)O)NC(=O)CN1CCC(CN2CCN4CCN(CC2)CC(=O)[O][Al]([F])[O]C(=O)C4)CC1)[C@@H](C)CC)CC3 [[^18F] 5-Al]
attribute measured: 15 min (% active form in blood)
endpoint unit: %
recorded value: 100

compound: CC[C@H](C)[C@H](NC(=O)CCNC(=O)CCNC(=O)CN(CC(=O)O)C(=O)CN1CCC(CN2CCN3CCN(CC2)CC(=O)[O][Al]([F])[O]C(=O)C3)CC1)C(=O)N[C@H]1CCc2cccc3c2N(C1=O)[C@H](C(=O)N[C@H]1CC(=O)O[C@H]1OC)C3 [[^18F] 9-Al]
attribute measured: 15 min (% active form in blood)
endpoint unit: %
recorded value: 100

compound: CCO[C@@H]1OC(=O)C[C@@H]1NC(=O)[C@@H]1Cc2cccc3c2N1C(=O)[C@@H](NC(=O)[C@@H](NC(=O)COCCNC(=O)[C@@H](CCC(=O)O)NC(=O)[C@@H](CCC(=O)O)NC(=O)CN1CCC(CN2CCN4CCN(CC2)CC(=O)[O][Al]([F])[O]C(=O)C4)CC1)[C@@H](C)CC)CC3 [[^18F] 8-Al]
attribute measured: 15 min (% active form in blood)
endpoint unit: %
recorded value: 100

The compound CC[C@H](C)[C@H](NC(=O)CCNC(=O)CCNC(=O)[C@@H](CCC(=O)O)NC(=O)CN1CCC(CN2CCN3CCN(CC2)CC(=O)[O][Al]([F])[O]C(=O)C3)CC1)C(=O)N[C@H]1CCc2cccc3c2N(C1=O)[C@H](C(=O)N[C@H]1CC(=O)O[C@@H]1OC)C3 [[^18F] 3-Al] showed 15 min (% active form in blood) equal to 17

The compound CC[C@H](C)[C@H](NC(=O)CCNC(=O)CCNC(=O)[C@@H](CCC(=O)O)NC(=O)CN1CCC(CN2CCN3CCN(CC2)CC(=O)[O][Al]([F])[O]C(=O)C3)CC1)C(=O)N[C@H]1CCc2cccc3c2N(C1=O)[C@H](C(=O)N[C@H]1CC(=O)O[C@H]1OC)C3 [[^18F] 4-Al] showed 15 min (% active form in blood) equal to 94
